Values were extracted from the supplement of paper PMC11246515.

Entries and their measured total protein half-life in vivo follow.
- protocolText: total protein half-life in vivo (active degradation + dilution); higher = more stable protein
- conditionDetails: wild type E. coli NCM3722; growth: N-lim chemostat; doubling time 6 h
Kindly answer with a numeric value in h, unit omitted.

Examples from the recorded data:
macromoleculesequence=MTLQQQIIKALGAKPQINAEEEIRRSVDFLKSYLQTYPFIKSLVLGISGGQDSTLAGKLCQMAINELRLETGNESLQFIAVRLPYGVQADEQDCQDAIAFIQPDRVLTVNIKGAVLASEQALREAGIELSDFVRGNEKARERMKAQYSIAGMTSGVVVGTDHAAEAITGFFTKYGDGGTDINPLYRLNKRQGKQLLAALACPEHLYKKAPTADLEDDRPSLPDEVALGVTYDNIDDYLEGKNVPQQVARTIENWYLKTEHKRRPPITVFDDFWKK readoutlabel="total protein half-life in vivo" measureunit=h result=4.67
macromoleculesequence=MKIISKMLVGALALAVTNVYAAELMTKAEFEKVESQYEKIGDISTSNEMSTADAKEDLIKKADEKGADVLVLTSGQTDNKIHGTANIYKKK readoutlabel="total protein half-life in vivo" measureunit=h result=5.28
macromoleculesequence="MANVEIYTKETCPYCHRAKALLSSKGVSFQELPIDGNAAKREEMIKRSGRTTVPQIFIDAQHIGGCDDLYALDARGGLDPLLK [P0AC62]" readoutlabel="total protein half-life in vivo" measureunit=h result=4.68
macromoleculesequence=MMKTMRIAAIPGDGIGKEVLPEGIRVLQAAAERWGFALSFEQMEWASCEYYSHHGKMMPDDWHEQLSRFDAIYFGAVGWPDTVPDHISLWGSLLKFRREFDQYVNLRPVRLFPGVPCPLAGKQPGDIDFYVVRENTEGEYSSLGGRVNEGTEHEVVIQESVFTRRGVDRILRYAFELAQSRPRKTLTSATKSNGLAISMPYWDERVEAMAENYPEIRWDKQHIDILCARFVMQPERFDVVVASNLFGDILSDLGPACTGTIGIAPSANLNPERTFPSLFEPVHGSAPDIYGKNIANPIATIWAGAMMLDFLGNGDERFQQAHNGILAAIEEVIAHGPKTPDMKGNATTPQVADAICKIILR readoutlabel="total protein half-life in vivo" measureunit=h result=2.63
macromoleculesequence=MKRNLLSSAIIVAIMSLGLTGCDDKKAETETLPPANSQPAAPAPEAKPTEAPVAKAEAKPETPAQPVVDEQAVFDEKMDVYIKCYNKLQIPVQRSLARYADWLKDFKQGPTGEERTVYGIYGISESNLAECEKGVKSAVALTPALQPIDGVAVSYIDAAVALGNTINEMDKYYTQENYKDDAFAKGKTLHQTFLKNLEAFEPVAESYHAAIQEINDKRQLAELKNIEEREGKTFHYYSLAVMISAKQINNLISQDKFDAEAAMKKVSELETLVAQAKEADKGGMNFSFINSAGQYQLEAKKYVRRIRDKVPYSDWDKEQLQDANSSWMVEDSFPRALREYNEMVDDYNSLR readoutlabel="total protein half-life in vivo" measureunit=h result=6.45

State the recorded total protein half-life in vivo for this entry: MGLPPLSKIPLILRPQAWLHRRHYGEVLSPIRWWGRIPFIFYLVSMFVGWLERKRSPLDPVVRSLVSARIAQMCLCEFCVDITSMKVAERTGSSDKLLAVADWRQSPLFSDEERLALEYAEAASVTPPTVDDALRTRLAAHFDAQALTELTALIGLQNLSARFNSAMDIPAQGLCRIPEKRS
6

Same question, MNNSAFTFQTLHPDTIMDALFEHGIRVDSGLTPLNSYENRVYQFQDEDRRRFVVKFYRPERWTADQILEEHQFALQLVNDEVPVAAPVAFNGQTLLNHQGFYFAVFPSVGGRQFEADNIDQMEAVGRYLGRMHQTGRKQLFIHRPTIGLNEYLIEPRKLFEDATLIPSGLKAAFLKATDELIAAVTAHWREDFTVLRLHGDCHAGNILWRDGPMFVDLDDARNGPAVQDLWMLLNGDKAEQRMQLETIIEAYEEFSEFDTAEIGLIEPLRAMRLVYYLAWLMRRWADPAFPKNFPWLTGEDYWLRQTATFIEQAKVLQEPPLQLTPMY [P0C0K3] this time
4.23
